tested on: Human papillomavirus type 1a protein E7 (residues 44-93); assay: HPV1a E7 fragment binders on microarrays, primary screen, biochemical, small-molecule microarray, residues 44-93, 635 nm fluorescence (AID 1108); settings: small-molecule microarray binding, fluorescence 635 nm; higher = more signal;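 further: E7 fragment applied at 1 µg/mL in TBST for 1 h at 4 C; score combines spot fluorescence with its signal to noise ratio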
The following molecules are listed with their measured composite z-score values.
Reply with just the number.

**Query** Find the recorded composite z-score belonging to CO[C@H]1COC(=O)CC=C[C@H](C)[C@@H](OC)COC(=O)[C@H](C)COC(=O)CC=C[C@@H]1C and report it.
**Result** -0.61

**Query** Please report the recorded composite z-score for CC1O[C@H]2C3=C(C(=O)[C@@H]4O[C@@H]4[C@H]3O)[C@@H]1C1[C@@H](C)OC=C3[C@H](O)C4O[C@@H]4C(=NOCc4ccccc4)[C@]312 (some centres undefined) .
**Result** -0.768

**Query** Could you share which composite z-score value was measured for CCOC(=O)[C@H](Cc1ccccc1)NC(=O)CCC1CC(OC(=O)NCc2cccc3ccccc23)CC2(CCCC(COC(=O)NCc3ccccc3)O2)O1 (some centres undefined) ?
**Result** 0.836

**Query** Would you mind telling me what composite z-score value was observed for C=CC[C@@H]1C=C[C@H](ON=C(C)CCC(=O)OC[C@H]2O[C@H](c3ccccc3)C=C[C@@H]2Oc2ccc(OC)cc2)[C@@H](CO)O1 ?
**Result** -0.0821

**Query** Which composite z-score value is on record for CCOC(=O)[C@H](CC(C)C)NC(=O)CCC1CC(OC(=O)NCc2cccc3ccccc23)CC2(CCCC(COC(=O)NCCc3ccc(Cl)cc3)O2)O1 (some centres undefined) ?
**Result** 0.529

**Query** Using the record for CO[C@H]1COC(=O)CC=C[C@@H](C)[C@H](NS(=O)(=O)c2ccc(C)cc2)COC(=O)CCC[C@@H]1C , report its composite z-score.
**Result** 0.106

**Query** I am curious: what composite z-score value has been reported for CCOC(=O)[C@H](CC(C)C)NC(=O)CCC1CC(OC(=O)NCc2cccc3ccccc23)CC2(CCCC(COC(=O)NCC3CCCCC3)O2)O1 (some centres undefined) ?
**Result** 1.31

**Query** Please look up its composite z-score: CO[C@H]1COC(=O)[C@H](C)NC(=O)CC=C[C@@H](C)[C@H](OC)COC(=O)[C@@H](OCc2ccccc2)C=C[C@@H]1C
**Result** -0.112

###

Listed here are compounds together with their documented z-score.
assay: basal S. cerevisiae growth modulation, no modifier, primary screen, OD600, strain BY4716, 24 h, basal condition (AID 1173); settings: OD600, 24 h, higher = more signal, called active from +8 up or from −8 down
Please give the numeric answer without any surrounding text.

compound=CCCCC#C[C@@H]1C=C[C@H](OC(C)=O)[C@@H](COC(C)=O)O1 observed_property=z-score measured=-1.44
compound=COC(=O)[C@@H]1CC[C@H](C)[C@@H](c2ccc(C)cc2)N1C(=O)c1ccc(C=NOCC[C@@H]2C=C[C@H](OC(C)=O)[C@@H](COC(C)=O)O2)cc1 observed_property=z-score measured=1.76

Here is another compound to look at.
**Query** Item under review: CC(C)=CCCC(C)=CCON=C1C[C@@H](O)[C@@H](O)[C@@H]2[C@@H]3C(=O)N(C4CCCCC4)C(=O)[C@@H]3CC[C@@H]12 . Reported z-score?
**Result** -0.81

###

system: wheat germ agglutinin (Triticum aestivum), Alexa647-labelled; experiment: wheat germ agglutinin binders on compound microarrays, profiling panel, artefact control for SMM control-protein annotation, biochemical, small-molecule microarray, 635/667 nm fluorescence (AID 1140); details: WGA-A647 binding, 635 nm fluorescence, higher = more signal;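 further: score merges 667 nm feature emission with signal to noise over triplicate slides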
observed-property: composite z-score

Check out these entries, answers already filled in.
compound=Cc1ccc(S(=O)(=O)OC[C@H]2CN3[C@H](c4ccc(Br)cc4)[C@@H](C)CC[C@H]3C(=O)O2)cc1 assayed_system="wheat germ agglutinin (Triticum aestivum), Alexa647-labelled" observed_property="composite z-score" measured=0.11
compound="CCOC(=O)[C@H](CC(C)C)NC(=O)CCC1CC(OC(=O)NCc2ccc3c(c2)OCO3)CC2(CCCC(COC(=O)NCCCN3CCCC3=O)O2)O1 (some centres undefined)" assayed_system="wheat germ agglutinin (Triticum aestivum), Alexa647-labelled" observed_property="composite z-score" measured=0.911
compound=CC(C)CON=C1C[C@@H](O)[C@@H](O)[C@@H]2[C@@H]3C(=O)N(C4CCCCC4)C(=O)[C@@H]3CC[C@@H]12 assayed_system="wheat germ agglutinin (Triticum aestivum), Alexa647-labelled" observed_property="composite z-score" measured=0.556

Turning now to a further compound:
**Query** Given the entry COC(=O)CC=C[C@@H](C)[C@@H](C=NOC(C)CN1CCCc2nc(C)c(C)cc21)OC (some centres undefined) , report its measured composite z-score.
**Result** -0.0665

###

experiment: small-molecule binders of probe aLefty1, primary screen, biochemical, small-molecule microarray, 635/667 nm fluorescence (AID 1153); conditions: higher = more signal;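 further: score merges spot fluorescence with signal-to-noise ratio from the scanned slide images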
The entries below come with measured composite z-score values attached.
Form field (numeric): enter value without unit.

Below, 3 molecules whose answers are already recorded.
molecule=CC(CCN1CCCc2nc(C)c(C)cc21)=NO[C@@H](C)c1cc(-c2c(C)cc(C)cc2C)no1 observed_property="composite z-score" measured=0.0402
molecule="CCOC(=O)[C@H](CC(C)C)NC(=O)CCC1CC(OC(=O)NCc2ccc3c(c2)OCO3)CC2(CCCC(COC(=O)NCCCN3CCCC3=O)O2)O1 (some centres not stated)" observed_property="composite z-score" measured=0.0004
molecule="CCOC(=O)[C@H](CC(C)C)NC(=O)CCC1CC(OC(=O)NCc2ccc3c(c2)OCO3)CC2(CCCC(COC(=O)NCc3cccc(C(F)(F)F)c3)O2)O1 (some centres not stated)" observed_property="composite z-score" measured=0.125

**Query** Reported composite z-score, molecule C[C@@H](c1ccccc1)N1C(=O)[C@H]2[C@H]3[C@H](O)[C@H](O)CC(=NO[C@@H]4O[C@H](CO)[C@@H](O)[C@H](O)[C@H]4O)[C@H]3CC[C@H]2C1=O : ____
**Result** 1.16

**Query** Request the reported composite z-score associated with CC(CCN1CCCCc2nc(C)c(C)cc21)=NOC[C@@H](C)[C@H](OCc1ccccc1)C(C)C
**Result** -0.502

**Query** Item under review: COc1cccc([C@H]2Oc3ccc(OC)cc3C(=NO[C@@H](C)c3cn([C@H](CO)Cc4ccccc4)nn3)[C@@H]2O)c1 . Reported composite z-score?
**Result** -0.147

**Query** What value of measured composite z-score is listed for CCOC(=O)NN=C1C[C@@H](O)[C@@H](O)[C@@H]2[C@@H]3C(=O)N(c4ccc(F)cc4F)C(=O)[C@@H]3CC[C@@H]12 ?
**Result** 0.197

###

target: Carbonic anhydrase 2 (Homo sapiens); experiment: CAII small-molecule binders, profiling panel, biochemical, small-molecule microarray, Alexa647-labelled CAII (AID 1122); conditions: CAII-A647 binding fluorescence, higher = more signal
Please mark Condition met if the recorded composite z-score is equal to or greater than 0.02, and Condition not met if it falls below.

**Query** Hi, just wondering whether CCOC(=O)NN=C1C[C@@H](O)[C@@H](O)[C@@H]2[C@@H]3C(=O)N(c4cccc(Oc5ccccc5)c4)C(=O)[C@@H]3CC[C@H]12 shows composite z-score of 0.02 or higher.
**Result** Condition met

**Query** hey, is composite z-score for this one >= 0.02? COC(=O)CC=C[C@H](C)[C@@H](OCc1cccc(Br)c1)[C@@H](C)[C@H](OC)C1CCCCC1
**Result** Condition met

**Query** Is it the case that CC(=O)OC[C@H]1O[C@H](C#Cc2ccccc2)C=C[C@@H]1OC(C)=O has composite z-score reaching or exceeding 0.02?
**Result** Condition met

**Query** Does the reported composite z-score for CCOC(=O)[C@H](Cc1ccccc1)NC(=O)CCC1CC(OC(=O)NCc2cccc3ccccc23)CC2(CCCC(COC(=O)NCc3ccccc3)O2)O1 (stereo partly drawn) fall at or above the 0.02 mark?
**Result** Condition met

**Query** Hi team, for Cc1cc2c(c(=O)o1)[C@@H](O)[C@H]1O[C@H]1C2=O , is the recorded composite z-score at or above 0.02?
**Result** Condition not met

**Query** Threshold query (composite z-score >= 0.02) on CCOC(=O)CCN1C(=O)[C@H]2[C@H]3[C@H](O)[C@H](O)CC(=NOCC(C)C)[C@H]3CC[C@H]2C1=O
**Result** Condition not met

**Query** hey, is composite z-score for this one >= 0.02? CC(C)CON=C1C[C@@H](O)[C@@H](O)[C@@H]2[C@@H]3C(=O)N(Cc4ccc5c(c4)OCO5)C(=O)[C@@H]3CC[C@H]12
**Result** Condition met

**Query** hey, is composite z-score for this one >= 0.02? CCOC(=O)[C@H](CC(C)C)NC(=O)CCC1CC(OC(=O)NCCc2ccc(F)cc2)CC2(CCCC(COC(=O)NCCc3ccc(Cl)cc3)O2)O1 (stereo partly drawn)
**Result** Condition met
